tested on: breast MDA-MB-435; test: COMPARE screening (NCI human cancer cell line screen), cytotoxicity GI50; format: cell-based
Overview of recorded GI50 for various compounds
Please answer using the number first and the unit second.

Worked cases, GI50 given:
compound="O=C1c2ccccc2-c2c1c1ccccc1c(=O)n2CCCNCCCn1c2c(c3ccccc3c1=O)C(=O)c1ccccc1-2 [Compound 12c]" target_of_assay="breast MDA-MB-435" readout_kind=GI50 assay_result="8.91 µM"
compound="O=C(O)C(F)(F)F.O=C(O)C(F)(F)F.O=C(O)C(F)(F)F.O=C1c2ccccc2-c2c1c1ccccc1c(=O)n2CCNCCNCCNCCn1c2c(c3ccccc3c1=O)C(=O)c1ccccc1-2 [Compound 14i]" target_of_assay="breast MDA-MB-435" readout_kind=GI50 assay_result="1 µM"
compound="COc1cc2c3c(n(CCCN4CCCNCC4)c(=O)c2cc1OC)-c1cc2c(cc1C3=O)OCO2.Cl.Cl [Compound 5v, Dihydrochloride]" target_of_assay="breast MDA-MB-435" readout_kind=GI50 assay_result="2.63 µM"

Pending compound:
So for CC(C)(C)OC(=O)NCCCCCCCn1c2c(c3ccccc3c1=O)C(=O)c1ccccc1-2 , the logged GI50 turned out to be 81.3 µM

----------
system: ovarian OVCAR-3; test: COMPARE screening (NCI human cancer cell line screen), cytotoxicity GI50; type: cell-based
Overview of recorded GI50 for various compounds
Note: unit µM is implicit; provide only the numeric part.

Worked cases, GI50 given:
compound="Cl.O=C1c2ccccc2-c2c1c1ccccc1c(=O)n2CCCCNCCCn1c2c(c3ccccc3c1=O)C(=O)c1ccccc1-2 [Compound 14b, Hydrochloride]" assay_result=0.372
compound="Cl.NCCn1c2c(c3ccccc3c1=O)C(=O)c1ccccc1-2 [Compound 5al]" assay_result=0.71
compound="O=C1c2ccccc2-c2c1c1ccccc1c(=O)n2CCN1CCOCC1 [Compound 5j]" assay_result=81.3

So for CN(C)CCCn1c2c(c3ccccc3c1=O)C(=O)c1ccccc1-2 [Compound 5d] , the logged GI50 turned out to be 1.7

----------
tested on: ovarian OVCAR-3; assay: COMPARE screening (NCI human cancer cell line screen), cytotoxicity GI50; type: cell-based; conditions: Homo sapiens, OVCAR-3, 48 h, read-out: Cytotoxicity (GI50) Ovarian OVCAR-3
# label = true (1) if GI50 < 700 nM else false (0)

Take a look at these entries with their results.
compound="COc1cc2c(=O)n(CCCN3CCOCC3)c3c(c2cc1OCCCN)C(=O)c1cc2c(cc1-3)OCO2 [Compound 22]" group_label="true (1)"
compound="COc1cc2c(=O)n(CCCN3CCOCC3)c3c(c2cc1OCCCN1CCCC1)C(=O)c1cc2c(cc1-3)OCO2 [Compound 28]" group_label="false (0)"
compound="COC(=O)COc1cc2c3c(n(CCCN4CCOCC4)c(=O)c2cc1OC)-c1cc2c(cc1C3=O)OCO2 [Compound 29]" group_label="false (0)"
compound="C=CCOc1cc2c3c(n(CCCN4CCOCC4)c(=O)c2cc1OC)-c1cc2c(cc1C3=O)OCO2 [Compound 20]" group_label="true (1)"

Please find the next compound below.
-- ask Take the compound COc1cc2c(=O)n(CCCN3CCOCC3)c3c(c2cc1OCCCN1CCCCC1)C(=O)c1cc2c(cc1-3)OCO2 [Compound 27] and say whether its GI50 is less than 700 nM.
-- reply false (0)

The measurements presented in this section are drawn from patent US9796753B2.
